protocol: in vivo
Set-up: species or system mice
condition_context: male, NOD.Cg-Rag1tm1Momll2rgtm1Wjl/SzJ (NRG), mouse, iv, total radioactivity, Ratio Tumor-to-Muscle
Where a SMILES comes first, the peptide text is derived from it. Bridges are numbered along the chain shown (N, C = ends). [ ]: non-standard residue; d: D form. The star is where a group is joined. X3 = O=C(O)CN1CCN(CC(=O)O)CCN(CC(=O)N[C@@H](CS(=O)(=O)O)C(=O)N[C@@H](CCCCNC(=O)CCCc2ccc(Br)cc2)C(=O)*)CCN(CC(=O)O)CC1; X1 = O=C(O)CN1CCN(CC(=O)O)CCN(CC(=O)N[C@@H](CS(=O)(=O)O)C(=O)N[C@@H](CCCCNC(=O)CCCc2ccc(I)cc2)C(=O)*)CCN(CC(=O)O)CC1; 2Nal = N[C@@H](Cc1ccc2ccccc2c1)C(=O)O; Lys(iPr) = CC(C)NCCCC[C@H](N)C(=O)O
measurement_kind: tissue to tissue ratio at 120 h
# print the numeric value only

molecule	reported
CC(C)NCCCC[C@H](NC(=O)[C@H]1CCC(=O)N[C@@H](CCCCNC(=O)[C@H](CCCCNC(=O)CCCc2ccc(I)cc2)NC(=O)[C@H](CS(=O)(=O)O)NC(=O)CN2CCN(CC(=O)O)CCN(CC(=O)O)CCN(CC(=O)O)CC2)C(=O)N[C@@H](Cc2ccc(O)cc2)C(=O)N[C@@H](CCCCNC(C)C)C(=O)N[C@H](CCCNC(=N)N)C(=O)N[C@@H](Cc2ccc3ccccc3c2)C(=O)N[C@H](C)C(=O)N1)C(N)=O [[^177Lu]Lu-BL34L11, metal not drawn] (K(X1)Y[Lys(iPr)][dR][2Nal][dA][dE][Lys(iPr)]-NH2; lactam N-7)	190

Please examine the following record next.
Which measured tissue to tissue ratio at 120 h value corresponds to CC(C)NCCCC[C@H](NC(=O)[C@H]1CCC(=O)N[C@@H](CCCCNC(=O)[C@H](CCCCNC(=O)CCCc2ccc(Br)cc2)NC(=O)[C@H](CS(=O)(=O)O)NC(=O)CN2CCN(CC(=O)O)CCN(CC(=O)O)CCN(CC(=O)O)CC2)C(=O)N[C@@H](Cc2ccc(O)cc2)C(=O)N[C@@H](CCCCNC(C)C)C(=O)N[C@H](CCCNC(=N)N)C(=O)N[C@@H](Cc2ccc3ccccc3c2)C(=O)N[C@H](C)C(=O)N1)C(N)=O [[^177Lu]Lu-BL34L20, metal not drawn] (K(X3)Y[Lys(iPr)][dR][2Nal][dA][dE][Lys(iPr)]-NH2; lactam N-7) ?
357
